experiment: calcein-AM signal in unstimulated myeloma cells – cell-based, calcein-AM fluorescence, 48 h, PK04 Diversity Set, profiling panel (AID 1166); conditions: RPMI8226 myeloma viability, higher = more signal;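 also: cells grown under basal conditions without added stimulus; test concentration not given here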
We begin with a simple list: items and their reported z-score.
recorded-endpoint: z-score

molecule	result
COC(=O)[C@]1(CCS(=O)(=O)c2ccccc2)N=C(c2ccc(OCCCO)cc2)O[C@@H]1c1ccccc1N=[N+]=[N-]	-3.33
C=CCNC(=O)[C@@H]1[C@H]2C(=O)O[C@H](c3ccccc3)[C@H](c3ccccc3)N2[C@H](c2ccccc2OCCO)[C@@]12C(=O)Nc1ccc(C#CCC(C(=O)OC)C(=O)OC)cc12	-4.17
COCCOC(=O)N1C(=O)[C@@]2(c3cc(C#CCCO)ccc31)[C@H](C(=O)Nc1nc3ccccc3s1)[C@H]1C(=O)O[C@H](c3ccccc3)[C@H](c3ccccc3)N1[C@@H]2c1ccc(O)cc1	-2.06
CCOC(=O)C[C@H]1[C@H](OC(=O)Cc2ccc3c(c2)OCO3)[C@@H](NC(=O)C2CCCCC2)c2cc(OCCCO)ccc2N1C(=O)c1ccccc1	-0.354
O=C1NC(=O)C2C1C=CC(C(O)c1ccco1)N2Nc1ccc(Cl)cc1Cl (configuration not stated)	-0.941
COCC(=C=CC[C@H](O)c1ccccc1OCCO)C[C@H](O)c1ccccn1	0.139
Cc1ccc(N2C(=O)c3ccccc3[C@@H](C(=O)NCCCN(C)C)[C@@H]2c2ccc(CO)cc2)nc1	-0.71

----------
Reported z-score is given for each of the following molecules.
assay: inhibition of PAO1 biofilm formation – strain PAO1, LB-PBS medium, absorbance 600 nm, primary screen (AID 1176); also: test concentration not given here; conditions: P. aeruginosa PAO1 growth/biofilm, A600, 12 h; higher = more signal
Active and inactive are the calls of the source. The rule behind the calls is not given here.

molecule	z-score
O=C1OCCC=C[C@H]2OC34C=CCN(Cn5nnc6ccccc65)C(=O)[C@H]3N(CCCO)C(=O)[C@@H]4C12 (stereo partly drawn)	-0.441 (inactive)
COC(=O)C1=CC(CCCO)=CC(c2cccs2)N(C)C=C1C(=O)OC (stereo not drawn)	0.462 (inactive)
CCCC1(C(=O)OC)C=C2C(=C(C)C(=O)C2C)CN1 (stereo not drawn)	0.343 (inactive)
CCCCCCc1nc(Cc2cc(OC)c(OC)c(OC)c2)cc2c1[Si](C(C)C)(C(C)C)OC2	-0.215 (inactive)
Cc1ccc(S[C@]2(C(=O)NCCN3CCOCC3)CC(=O)N(Cc3ccccc3Cl)[C@@H]2c2ccc(CO)cc2I)cc1	0.379 (inactive)
C=CCC(OC(C)=O)[C@@H]1[C@@H](N(Cc2ccc(-c3cccc(C(F)(F)F)c3)o2)C(=O)c2ccc(-c3ccccc3)cc2)c2cc(OCCCO)ccc2N1C(=O)Cc1ccc2ccccc2c1 (stereo partly drawn)	0.338 (inactive)
[N-]=[N+]=Nc1ccccc1[C@H]1OC(c2ccc(OCCCO)cc2)=N[C@@]1(Cc1ccccc1)C(=O)NCCN1CCOCC1	0.314 (inactive)
CCCC=C(CCC)[C@@H](NC(=O)C(C)(C)C)c1ccc(C(=O)OC)cc1	0.122 (inactive)

----------
system: glycogen synthase kinase-3 (GSK3A per assay name; protocol says GSK3B); assay: compounds binding glycogen synthase kinase-3 – biochemical, small-molecule microarray, 635 nm fluorescence, GSK3A, primary screen (AID 1103); conditions: fluorescence 635 nm, higher = more signal; also: the record names both GSK3A and GSK3B
composite z-score values, listed per item

compound	composite z-score
CCCC=C(CCC)[C@@H](NS(=O)(=O)CC12CCC(CC1=O)C2(C)C)c1ccc(C(=O)OC)cc1 (stereo partly specified)	0.233
C#CCN([C@@H](Cc1ccccc1)C(=O)OC)[C@@H](/C=C/C1CC1)[C@H](O)Cc1ccccc1	-0.489
O=C1N(CCS(=O)(=O)c2ccccc2)c2ccccc2[C@H]2OC(c3ccc(OCCCO)cc3)=N[C@@]12Cc1ccccc1	1.05
CC1CC/C=C\[C@H]2OC34C=CCN(c5ccc(Cl)cc5)C(=O)[C@H]3N(C(C)CO)C(=O)[C@]4(C)C2C(=O)O1 (stereo partly specified)	-0.793
COc1ccccc1CN1C(=O)c2ccccc2[C@](Cc2ccccc2I)(C(=O)O)[C@@H]1c1ccc(CO)cc1	0.941
C=C[C@@H](CO)N(Cc1ccc(OC)cc1)S(=O)(=O)c1ccc(Br)cc1	0.239
CCOC(=O)C[C@H]1[C@H](OC(=O)c2ccc(C(=O)c3ccccc3)cc2)[C@@H](NC(=O)CC(C)C)c2cc(OCCCO)ccc2N1C(=O)c1ccccc1	0.972
CCCC[C@@H](O)C1=C(COC)C[C@H]2C(=O)N(C)C(=O)[C@H]2[C@H]1CO	-0.0596
C=C(COC)/C(=C/C[C@H](OC(=O)c1ccncc1)c1ccccc1OCCO)c1cc(C(=O)OC)ccc1OC	0.684
COc1ccc(CCNC(=O)[C@@]2(c3ccc([N+](=O)[O-])cc3)CC(=O)N(C3CCCCC3)[C@@H]2c2ccc(CO)cc2)cc1	1
COc1cc(NN2C(C(O)c3ccc(N(C)C)cc3)C=CC3C(=O)N(c4ccccc4)C(=O)C32)cc(OC)c1OC (stereo unspecified)	0.765
C=C[C@@H](OC)[C@H](OC(=O)Nc1ccc(OC)cc1)c1ccc(O)c(F)c1	-0.242
CCOC(=O)C1=C[C@@H](C(C)(C)C)N(S(=O)(=O)c2ccc(C)cc2)[C@H]1c1cccc2ccccc12	0.936
CC1CC/C=C\[C@H]2OC34C=CCN(Cc5ccccc5)C(=O)[C@H]3N(C(CO)C(C)C)C(=O)[C@@H]4C2C(=O)O1 (stereo partly specified)	-0.484
C=CCC(OC(C)=O)[C@@H]1[C@@H](N(Cc2cccc3ccccc23)C(=O)Cc2ccc(OC)cc2)c2cc(OCCCO)ccc2N1C(=O)c1ccc(-c2ccccc2)cc1 (stereo partly specified)	-0.179
CCCCC(O)C1C=CC2C(=O)N(C)C(=O)C2N1N(c1ccccc1)c1ccccc1 (stereo unspecified)	1.02
[N-]=[N+]=Nc1ccccc1C[C@@]1(C(N)=O)N=C(c2ccc(OCCCO)cc2)O[C@@H]1c1ccccc1N=[N+]=[N-]	0.385
CC(C)NC(=O)[C@@]1(c2ccc([N+](=O)[O-])cc2)CC(=O)N(C2CCCCC2)[C@@H]1c1ccc(CO)cc1	0.645
NC(=O)NCC#Cc1ccc2c(c1)[C@]1(C(=O)N2)[C@H](c2ccccc2OCCO)N2[C@H](c3ccccc3)[C@H](c3ccccc3)OC(=O)[C@H]2[C@@H]1C(=O)NC[C@H](O)c1ccccc1	-0.659
[N-]=[N+]=Nc1ccccc1C[C@]1(C(=O)N2CCOCC2)COC(c2ccc(OCCCO)cc2)=N1	1.33
COc1ccc(CCNC(=O)[C@@H]2c3ccccc3C(=O)N(C3CCCCC3)[C@H]2c2ccc(CO)cc2)cc1	0.32
C=CCC(OC(C)=O)[C@@H]1[C@@H](N(Cc2ccc(-c3cccc(C(F)(F)F)c3)o2)C(=O)c2ccc(-c3ccccc3)cc2)c2cc(OCCCO)ccc2N1C(=O)Cc1ccc2ccccc2c1 (stereo partly specified)	-1.22
[N-]=[N+]=Nc1ccccc1C[C@]1(C(=O)O)COC(c2ccc(OCCCO)cc2)=N1	-1.1
CS(=O)(=O)CCOC(=O)C1=CC(CCCO)=CC(c2ccc(CN3CCCC3)cc2)N(Cc2sc3ccccc3c2Cl)C=C1C(=O)OCCS(C)(=O)=O (stereo unspecified)	1.33
COCC(=C=CC[C@H](O)c1ccc(OCCO)cc1)CCO	0.42
Cc1ccc(C(C)CC(O)C2C=CC3C(=O)N(c4ccccc4)C(=O)C3N2Nc2ccccc2)o1 (stereo unspecified)	1.28
COc1ccc([Si](C)(C)[C@H]2[C@H](CC(=O)N3Cc4ccccc4C[C@H]3CO)O[C@@]3(C(=O)N(Cc4ccc(N5CCOC5=O)cc4)c4ccccc43)[C@@H]2C)cc1	0.676
CCCC=C(CCC)[C@@H](NC(=O)C(C)(C)C)c1ccc(C(=O)OC)cc1	-0.107
C#Cc1cc2ccccc2oc1=O	-0.748
C=C[C@H](C)[C@H](OC(=O)Nc1ccc(SC)cc1)c1ccc(OCCO)cc1	0.394
COc1ccc([Si](C)(C)[C@H]2[C@H](CC(=O)N(CCO)Cc3ccccc3)O[C@@]3(C(=O)N(C)c4c(Br)cc(C)cc43)[C@@H]2C)cc1	0.691

----------
Reported z-score is given for each of the following molecules.
assay: inhibition of PAO1 biofilm formation – strain PAO1, LB-PBS medium, absorbance 600 nm, primary screen (AID 1176); also: test concentration not given here; details: P. aeruginosa PAO1 growth/biofilm, A600, 12 h; higher = more signal
recorded-endpoint: z-score

>>> df
                                   molecule  result
0  [N-]=[N+]=Nc1ccccc1C[C@]1(C(=O)O)COC(c2ccc(OCCCO)cc2)=N1  0.0254
1  CC(C)C(CO)N1C(=O)[C@@H]2[C@H]3C(=O)OCC=C[C@H]3OC23C=CCN(c2ccc(Cl)cc2)C(=O)[C@@H]13 (some centres undefined)   -1.13
2  NCCCCCNC(=O)[C@@H]1C[C@@H]2C(=O)N[C@@H](CCCCN)C(=O)N2[C@@H]1c1ccc(O)cc1    2.49
3  CC(C)C(O)C1C=CC2C(=O)N(c3ccccc3)C(=O)C2N1Nc1ccccc1 (centres undefined)   0.835
